Source listed as ChEMBL document CHEMBL5543142.

Tested on: Klebsiella pneumoniae
Assay: Antibacterial activity against Klebsiella pneumoniae ATCC BAA-1898 assessed as inhibition of bacterial growth incubated for 18 to 20 hrs in presence of iron-depleted CAMHB medium by two fold serial dilution assay
Format: functional
Details: time 18-20 hrs
For each entry below, report its MIC value.
State just the number; it will be interpreted in µg/mL.

Look up MIC for this molecule: CC(C)(O/N=C(\C(=O)N[C@@H]1C(=O)N2C(C(=O)[O-])=C(C[N+]3(CCNC(=O)c4ccc(O)c(O)c4Cl)CCCC3)CS[C@H]12)c1csc(N)n1)C(=O)O [CEFIDEROCOL] 2

Look up MIC for this molecule: "C[C@@](O/N=C(\C(=O)N[C@@H]1C(=O)N2C(C(=O)O)=C(CSCCNC(=O)c3ccc(O)c(O)c3Cl)CS[C@H]12)c1nc(N)sc1Cl)(C(=O)O)C(F)(F)F.O=C(O)C(F)(F)F" 4

Look up MIC for this molecule: Nc1nc(/C(=N/OC(C(=O)O)C2CCC(F)(F)CC2)C(=O)N[C@@H]2C(=O)N3C(C(=O)O)=C(CSCCNC(=O)c4ccc(O)c(O)c4Cl)CS[C@H]23)cs1.O=C(O)C(F)(F)F (stereo not given in full) 2

Look up MIC for this molecule: "Nc1nc(/C(=N/O[C@@H](C(=O)O)C2CCC(F)(F)CC2)C(=O)N[C@@H]2C(=O)N3C(C(=O)O)=C(CSCCNC(=O)c4ccc(O)c(O)c4Cl)CS[C@H]23)cs1.O=C(O)C(F)(F)F" 2

Look up MIC for this molecule: "Nc1nc(/C(=N/O[C@H](C(=O)O)C2CCC(F)(F)CC2)C(=O)N[C@@H]2C(=O)N3C(C(=O)O)=C(CSCCNC(=O)c4ccc(O)c(O)c4Cl)CS[C@H]23)cs1.O=C(O)C(F)(F)F" 2

* * *

Test system: Acinetobacter baumannii
Test: Antibacterial activity against OXA-23 producing multidrug-resistant Acinetobacter baumannii clinical isolate 17-5 assessed as inhibition of bacterial growth incubated for 18 to 20 hrs by two fold serial dilution assay
Type: functional
Conditions: time 18-20 hrs
For each entry below, report its MIC value.
State just the number; it will be interpreted in µg/mL.

Look up MIC for this compound: "Nc1nc(/C(=N/O[C@@H](C(=O)O)C2CCC(F)(F)CC2)C(=O)N[C@@H]2C(=O)N3C(C(=O)O)=C(CSCCNC(=O)c4ccc(O)c(O)c4Cl)CS[C@H]23)cs1.O=C(O)C(F)(F)F" 0.25

Look up MIC for this compound: "C[C@](O/N=C(\C(=O)N[C@@H]1C(=O)N2C(C(=O)O)=C(CSCCNC(=O)c3ccc(O)c(O)c3Cl)CS[C@H]12)c1nc(N)sc1Cl)(C(=O)O)C(F)(F)F.O=C(O)C(F)(F)F" 0.125

Look up MIC for this compound: "CC(C)[C@H](O/N=C(\C(=O)N[C@@H]1C(=O)N2C(C(=O)O)=C(CSCCNC(=O)c3ccc(O)c(O)c3Cl)CS[C@H]12)c1csc(N)n1)C(=O)O.O=C(O)C(F)(F)F" 4

* * *

For each entry below, report its MIC value.
Tested on: Klebsiella pneumoniae
Assay: Antibacterial activity against KPC-2 producing multidrug-resistant Klebsiella pneumoniae clinical isolate 15-3 assessed as inhibition of bacterial growth incubated for 18 to 20 hrs by two fold serial dilution assay
Format: functional
Conditions: time 18-20 hrs
State just the number; it will be interpreted in µg/mL.

Look up MIC for this molecule: "C[C@@](O/N=C(\C(=O)N[C@@H]1C(=O)N2C(C(=O)O)=C(CSCCNC(=O)c3ccc(O)c(O)c3Cl)CS[C@H]12)c1csc(N)n1)(C(=O)O)C(F)(F)F.O=C(O)C(F)(F)F" 2

Look up MIC for this molecule: CC1CCC(C(O/N=C(\C(=O)N[C@@H]2C(=O)N3C(C(=O)O)=C(CSCCNC(=O)c4ccc(O)c(O)c4Cl)CS[C@H]23)c2csc(N)n2)C(=O)O)CC1.O=C(O)C(F)(F)F (stereo not given in full) 1

Look up MIC for this molecule: Nc1nc(/C(=N/OC(C(=O)O)C2CC2)C(=O)N[C@@H]2C(=O)N3C(C(=O)O)=C(CSCCNC(=O)c4ccc(O)c(O)c4Cl)CS[C@H]23)cs1.O=C(O)C(F)(F)F (stereo not given in full) 64

Look up MIC for this molecule: Nc1nc(/C(=N/OC(C(=O)O)C2CCSCC2)C(=O)N[C@@H]2C(=O)N3C(C(=O)O)=C(CSCCNC(=O)c4ccc(O)c(O)c4Cl)CS[C@H]23)cs1.O=C(O)C(F)(F)F (stereo not given in full) 4

Look up MIC for this molecule: CC(C)(C)C(O/N=C(\C(=O)N[C@@H]1C(=O)N2C(C(=O)O)=C(CSCCNC(=O)c3ccc(O)c(O)c3Cl)CS[C@H]12)c1csc(N)n1)C(=O)O.O=C(O)C(F)(F)F (stereo not given in full) 16

* * *

Target: Voltage-gated inwardly rectifying potassium channel KCNH2 (Homo sapiens, UniProt Q12809)
Sequence (Q12809 whole entry): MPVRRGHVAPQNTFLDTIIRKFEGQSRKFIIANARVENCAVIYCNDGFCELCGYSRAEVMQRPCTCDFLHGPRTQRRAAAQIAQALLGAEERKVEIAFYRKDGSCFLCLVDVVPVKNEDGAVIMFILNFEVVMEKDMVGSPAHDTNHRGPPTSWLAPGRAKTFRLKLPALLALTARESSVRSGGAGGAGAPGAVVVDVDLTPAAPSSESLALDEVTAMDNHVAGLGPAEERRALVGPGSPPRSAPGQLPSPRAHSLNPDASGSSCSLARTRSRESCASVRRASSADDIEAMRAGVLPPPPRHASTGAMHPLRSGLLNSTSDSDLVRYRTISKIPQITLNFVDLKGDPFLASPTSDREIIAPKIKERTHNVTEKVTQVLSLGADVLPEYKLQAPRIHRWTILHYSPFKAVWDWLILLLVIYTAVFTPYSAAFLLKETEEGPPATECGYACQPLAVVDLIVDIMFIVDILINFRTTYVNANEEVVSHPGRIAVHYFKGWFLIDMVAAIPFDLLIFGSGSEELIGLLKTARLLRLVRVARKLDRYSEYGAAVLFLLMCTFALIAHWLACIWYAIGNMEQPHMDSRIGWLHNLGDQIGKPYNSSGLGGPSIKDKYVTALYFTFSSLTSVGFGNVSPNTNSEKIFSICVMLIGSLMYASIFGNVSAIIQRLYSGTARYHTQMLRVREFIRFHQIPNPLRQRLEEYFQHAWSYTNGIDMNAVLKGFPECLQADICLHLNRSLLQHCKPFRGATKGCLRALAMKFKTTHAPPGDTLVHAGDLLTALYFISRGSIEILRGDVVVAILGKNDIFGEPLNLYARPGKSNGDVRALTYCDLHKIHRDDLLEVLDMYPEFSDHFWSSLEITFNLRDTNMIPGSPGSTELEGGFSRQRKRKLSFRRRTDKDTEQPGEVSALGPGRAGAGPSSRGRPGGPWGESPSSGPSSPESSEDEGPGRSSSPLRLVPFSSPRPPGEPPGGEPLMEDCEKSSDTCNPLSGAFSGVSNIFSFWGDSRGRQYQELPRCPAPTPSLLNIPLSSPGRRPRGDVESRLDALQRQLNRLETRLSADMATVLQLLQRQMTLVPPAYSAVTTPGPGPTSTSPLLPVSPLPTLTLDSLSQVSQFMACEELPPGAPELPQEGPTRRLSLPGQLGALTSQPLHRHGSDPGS
Assay: Inhibition of hERG by whole cell Qpatch assay
pIC50: −log10 of the molar value.
parameter_measured: pIC50

Notebook entry, Voltage-gated inwardly rectifying potassium channel KCNH2 (Homo sapiens, UniProt Q12809) assay: pIC50 of CC(C)(O/N=C(\C(=O)N[C@@H]1C(=O)N2C(C(=O)[O-])=C(C[N+]3(CCNC(=O)c4ccc(O)c(O)c4Cl)CCCC3)CS[C@H]12)c1csc(N)n1)C(=O)O [CEFIDEROCOL] = ? 7.38

Notebook entry, Voltage-gated inwardly rectifying potassium channel KCNH2 (Homo sapiens, UniProt Q12809) assay: pIC50 of Nc1nc(/C(=N/OC(C(=O)O)C2CCC(F)(F)CC2)C(=O)N[C@@H]2C(=O)N3C(C(=O)O)=C(CSCCNC(=O)c4ccc(O)c(O)c4Cl)CS[C@H]23)cs1.O=C(O)C(F)(F)F (stereo not given in full) = ? < 4.40

Notebook entry, Voltage-gated inwardly rectifying potassium channel KCNH2 (Homo sapiens, UniProt Q12809) assay: pIC50 of "Nc1nc(/C(=N/O[C@@H](C(=O)O)C2CCC(F)(F)CC2)C(=O)N[C@@H]2C(=O)N3C(C(=O)O)=C(CSCCNC(=O)c4ccc(O)c(O)c4Cl)CS[C@H]23)cs1.O=C(O)C(F)(F)F" = ? < 4.40

Notebook entry, Voltage-gated inwardly rectifying potassium channel KCNH2 (Homo sapiens, UniProt Q12809) assay: pIC50 of "Nc1nc(/C(=N/O[C@H](C(=O)O)C2CCC(F)(F)CC2)C(=O)N[C@@H]2C(=O)N3C(C(=O)O)=C(CSCCNC(=O)c4ccc(O)c(O)c4Cl)CS[C@H]23)cs1.O=C(O)C(F)(F)F" = ? < 4.40

Notebook entry, Voltage-gated inwardly rectifying potassium channel KCNH2 (Homo sapiens, UniProt Q12809) assay: pIC50 of "C[C@@](O/N=C(\C(=O)N[C@@H]1C(=O)N2C(C(=O)O)=C(CSCCNC(=O)c3ccc(O)c(O)c3Cl)CS[C@H]12)c1nc(N)sc1Cl)(C(=O)O)C(F)(F)F.O=C(O)C(F)(F)F" = ? < 4.40

* * *

Test: Clearance in ICR mouse at 20 mg/kg,iv administration measured upto 6 hrs by LC-MS/MS analysis
Format: ADME, organism-based
Settings: in vivo
Everything with clearance lower than 50 mL/min/kg is not satisfied; everything else, including exactly 50 mL/min/kg, is satisfied.

Hello, I need to know if "CC(C)(O/N=C(\C(=O)N[C@@H]1C(=O)N2C(C(=O)[O-])=C(C[N+]3(CCNC(=O)c4ccc(O)c(O)c4Cl)CCCC3)CS[C@H]12)c1csc(N)n1)C(=O)O.O=C(O)C(F)(F)F" has measured clearance not below 50 mL/min/kg. Thanks! not satisfied

Hello, I need to know if CC(C)(C)C1CCC(C(O/N=C(\C(=O)N[C@@H]2C(=O)N3C(C(=O)O)=C(CSCCNC(=O)c4ccc(O)c(O)c4Cl)CS[C@H]23)c2csc(N)n2)C(=O)O)CC1.O=C(O)C(F)(F)F (stereo partly specified) has measured clearance not below 50 mL/min/kg. Thanks! satisfied

Hello, I need to know if "CC(C)(O/N=C(\C(=O)N[C@@H]1C(=O)N2C(C(=O)[O-])=C(C[N+]3(CCNC(=O)c4ccc(O)c(O)c4Cl)CCCC3)CS[C@H]12)c1csc(N)n1)C(=O)[O-].[Na+]" has measured clearance not below 50 mL/min/kg. Thanks! not satisfied

Hello, I need to know if Nc1nc(/C(=N/OC(C(=O)O)C2CCCCC2)C(=O)N[C@@H]2C(=O)N3C(C(=O)O)=C(CSCCNC(=O)c4ccc(O)c(O)c4Cl)CS[C@H]23)cs1.O=C(O)C(F)(F)F (stereo partly specified) has measured clearance not below 50 mL/min/kg. Thanks! satisfied

Hello, I need to know if "C[C@@](O/N=C(\C(=O)N[C@@H]1C(=O)N2C(C(=O)O)=C(CSCCNC(=O)c3ccc(O)c(O)c3Cl)CS[C@H]12)c1nc(N)sc1Cl)(C(=O)O)C(F)(F)F.O=C(O)C(F)(F)F" has measured clearance not below 50 mL/min/kg. Thanks! satisfied

Hello, I need to know if Nc1nc(/C(=N/OC(C(=O)O)C2CCC(F)(F)CC2)C(=O)N[C@@H]2C(=O)N3C(C(=O)O)=C(CSCCNC(=O)c4ccc(O)c(O)c4Cl)CS[C@H]23)c(Br)s1.O=C(O)C(F)(F)F (stereo partly specified) has measured clearance not below 50 mL/min/kg. Thanks! satisfied

Hello, I need to know if CC1CCC(C(O/N=C(\C(=O)N[C@@H]2C(=O)N3C(C(=O)O)=C(CSCCNC(=O)c4ccc(O)c(O)c4Cl)CS[C@H]23)c2csc(N)n2)C(=O)O)CC1.O=C(O)C(F)(F)F (stereo partly specified) has measured clearance not below 50 mL/min/kg. Thanks! satisfied

Hello, I need to know if Cc1ccc(S(=O)(=O)O)cc1.Nc1nc(/C(=N/OC(C(=O)O)C2CCC(F)(F)CC2)C(=O)N[C@@H]2C(=O)N3C(C(=O)O)=C(CSCCNC(=O)c4ccc(O)c(O)c4Cl)CS[C@H]23)cs1 (stereo partly specified) has measured clearance not below 50 mL/min/kg. Thanks! not satisfied

Hello, I need to know if Nc1nc(/C(=N/OC(C(=O)O)C2CCC(F)(F)CC2)C(=O)N[C@@H]2C(=O)N3C(C(=O)O)=C(CSCCNC(=O)c4ccc(O)c(O)c4Cl)CS[C@H]23)cs1.O=C(O)C(F)(F)F (stereo partly specified) has measured clearance not below 50 mL/min/kg. Thanks! not satisfied

Hello, I need to know if Nc1nc(/C(=N/OC(C(=O)O)C2CCC(F)(F)CC2)C(=O)N[C@@H]2C(=O)N3C(C(=O)O)=C(CSCCNC(=O)c4ccc(O)c(O)c4Cl)CS[C@H]23)c(Cl)s1.O=C(O)C(F)(F)F (stereo partly specified) has measured clearance not below 50 mL/min/kg. Thanks! satisfied

Hello, I need to know if Cl.Nc1nc(/C(=N/OC(C(=O)O)C2CCC(F)(F)CC2)C(=O)N[C@@H]2C(=O)N3C(C(=O)O)=C(CSCCNC(=O)c4ccc(O)c(O)c4Cl)CS[C@H]23)cs1 (stereo partly specified) has measured clearance not below 50 mL/min/kg. Thanks! satisfied
